- target.of.assay: H77 E1E2, wild type (Hepatitis C virus genotype 1a, isolate …)
- protocol.details: ELISA
observable: binding result

RM3-26 variant, heavy chain CDRH1 Y32 to alanine, wild-type light chain (antibody, V domains shown) VH: QLQLQESGPGLVKPSETLSLTCIVSGGSISGASWNWIRQPPGKGLEWIGNIFSGGDDANYNPSLKSRVTLSVDTSKNHFSLRLSSVTAADTAVYYCARHSAGFITGRYFELWGQGALVTVSS VL: DIQMTQSPSSLSASLGDRVTITCRANQDISSSLAWYQQKPGKAPKPLIYYASNLESGVPSRFRGSGSGTEFTLTISSLQSEDFAVYYCQQYNSDPLTFGGGTKVEIK: binds
RM3-26 variant, light chain CDRL3 Y91 to alanine, wild-type heavy chain (antibody, V domains shown) VH: QLQLQESGPGLVKPSETLSLTCIVSGGSISGYSWNWIRQPPGKGLEWIGNIFSGGDDANYNPSLKSRVTLSVDTSKNHFSLRLSSVTAADTAVYYCARHSAGFITGRYFELWGQGALVTVSS VL: DIQMTQSPSSLSASLGDRVTITCRANQDISSSLAWYQQKPGKAPKPLIYYASNLESGVPSRFRGSGSGTEFTLTISSLQSEDFAVYYCQQANSDPLTFGGGTKVEIK: binds
RM3-26 variant, light chain CDRL2 Y50 to alanine, wild-type heavy chain (antibody, V domains shown) VH: QLQLQESGPGLVKPSETLSLTCIVSGGSISGYSWNWIRQPPGKGLEWIGNIFSGGDDANYNPSLKSRVTLSVDTSKNHFSLRLSSVTAADTAVYYCARHSAGFITGRYFELWGQGALVTVSS VL: DIQMTQSPSSLSASLGDRVTITCRANQDISSSLAWYQQKPGKAPKPLIYAASNLESGVPSRFRGSGSGTEFTLTISSLQSEDFAVYYCQQYNSDPLTFGGGTKVEIK: binds
RM3-26 variant, heavy chain CDRH3 R100c to alanine, wild-type light chain (antibody, V domains shown) VH: QLQLQESGPGLVKPSETLSLTCIVSGGSISGYSWNWIRQPPGKGLEWIGNIFSGGDDANYNPSLKSRVTLSVDTSKNHFSLRLSSVTAADTAVYYCARHSAGFITGAYFELWGQGALVTVSS VL: DIQMTQSPSSLSASLGDRVTITCRANQDISSSLAWYQQKPGKAPKPLIYYASNLESGVPSRFRGSGSGTEFTLTISSLQSEDFAVYYCQQYNSDPLTFGGGTKVEIK: binds
